These entries and their values trace back to PubChem BioAssay (NCI).

system: SK-MEL-28 melanoma; experiment: NCI tumour cell line growth inhibition, 48 h
measured_quantity: GI50

// GI50 lookup, key: `CCN1CCN(CC(=O)N2c3cccc4cccc(c34)N(C(=O)CN3CCN(CC)CC3)C2c2cn(-c3ccccc3)nc2-c2cccc([N+](=O)[O-])c2)CC1`
1.75 µM

Repeat with `COC(C)(C)C/C=C/C(C)=C/C=C/C(C)=C\C=C\C(C)=C\C=C\C=C(C)\C=C\C=C(C)\C=C\C=C(C)\C=C\CC(C)(C)OC`
> 150 µg/mL

Ok, now `Cc1ccc(O)c(NC(=O)c2ccc(CNc3ccnc(C(F)(F)F)c3)cc2)c1`
13.8 µM

====

tested on: SW-620 colon; assay: NCI tumour cell line growth inhibition, 48 h
Assign TGI to each entry below.
Field format: number, assumed µM, no unit text.

Find the recorded TGI belonging to `C/C(=C\c1csc(C)n1)[C@@H]1C[C@@H]2O[C@]2(C)CCC[C@H](C)[C@H](O)[C@@H](C)C(=O)C(C)(C)[C@@H](O)CC(=O)O1` and report it.
16.1

Okay, and `CC1=C(C)Cc2c(O)ccc(O)c2C1` ?
37.6

What do we get for `N#C/C(=C\c1ccc(Br)cc1)n1nnc2ccc(F)cc21` ?
2.34

Same question, `Cc1cnc(C(=O)Nc2nc3ccc(S(=O)(=O)Nc4ccc(C5(C(F)(F)F)CC5)cc4)cc3[nH]2)cn1` this time
5.92

Please answer likewise for `CCN(CC)c1ccc(N=Nc2ccc(-c3nc4ccc[n+](C)c4o3)cc2)cc1`
16.2

====

tested on: SN12C renal; assay: NCI tumour cell line growth inhibition, 48 h
measured_quantity: TGI

What TGI appears in the records for this compound with SN12C renal? `CSc1nc(SC)c2c(CO)c(Br)n(Cc3ccccc3)c2n1`
> 100 µM

Let us now turn to `BrC(c1cccc2ccccc12)c1cccc2ccccc12`
27.4 µM

What do you have for COc1cc2c(cc1OC)C13CCN4CC5CCOC6CC(=O)N2C1C6C5CC43 (configuration not stated) ?
> 100 µM

Could you do the same for CCOC(=O)C(SCCO)C(C(=O)OCC)n1ccc(=O)[nH]c1=O (configuration not stated) , please?
> 100 µM

And for `N#Cc1c(N)nc(Sc2ccccc2N)c(C#N)c1-c1ccc(Cl)cc1` ?
40.4 µM

Another compound to check: `COc1cc(-c2nc(SCCC(C)C)nc(Nc3ccc(S(N)(=O)=O)cc3)c2C#N)cc(OC)c1OC`
3.51 µM

# iterate: CCC(=O)Nc1ccc(N2C(=O)C(Cl)C2c2ccc(SC)cc2)cc1 (configuration not stated)
> 100 µM

Field entry: `COc1ccc2c(c1)CCc1c-2n(CCN2CCCCC2)c2ccc(OC)cc12`
> 100 µM

// query: `C/C(=C\c1csc(C)n1)[C@@H]1C[C@@H]2O[C@]2(C)CCC[C@H](C)[C@H](O)[C@@H](C)C(=O)C(C)(C)[C@@H](O)CC(=O)O1`
> 100 µM

And `Cc1cc(C)c(-n2c(-c3ccc(Br)cc3)cs/c2=N\N=C2C=C(C(C)(C)C)C(=O)C(C(C)(C)C)=C2)c(C)c1` ?
> 100 µM

Can you check `CCOC(=O)NC(Nc1ccc(C(=O)OCC)cc1)(C(F)(F)F)C(F)(F)F` next?
> 100 µM

What do we get for `NC(N)=NS(=O)(=O)c1ccc(Nc2c3ccccc3nc3c(C(=O)Nc4ccc(S(N)(=O)=O)cc4)cccc23)cc1` ?
> 100 µM

Also `Cc1cccc(NC(=O)c2cccc([N+](=O)[O-])c2O)c1C` ?
> 100 µM

Next entry: C=C1C2C[C@@H]3O[C@H]4C[C@H]5O[C@@]6(C[C@@H]7O[C@]8(C[C@H](C)[C@@H]9O[C@@H]%10CC(CO)O[C@@H]%10C[C@@H]9O8)C[C@H](C)[C@@H]7O6)C[C@H]5O[C@H]4[C@H](C)[C@H]3OC(=O)C[C@H]3CC[C@@H]4OC5[C@H]6O[C@]7(CC[C@H]8CC(=C)[C@H](CC[C@@H](C[C@H]1C)O2)O8)CC6O[C@@H]5[C@@H](O7)[C@H]4O3 (some centres not stated)
> 1 µM

Consider next the compound `CCOC(=O)c1[nH]c(COC(C)=O)c2c1CCCCCCCCCC2` in the same way.
> 100 µM

Similarly, `Cc1cc(N2CCOCC2)cc2[nH]c(-c3c(NC[C@@H](O)c4cccc(Cl)c4)cc[nH]c3=O)nc12` ?
12.7 µM

Please do the same for `C=C(Br)CNC(=O)CCC(=O)NCC(=C)Br` as well.
> 100 µM
